# System: U-87 MG
# test.description: Antiproliferative activity against human U87MG cells overexpressing ANO1 assessed as reduction in cell viability measured after 72 hrs by Celltiter-glo assay
# Assay type: functional, U-87MG ATCC
In this section, each of the compounds is paired with its reported GI50.
recorded.endpoint: GI50 (µM)

compound | recorded.endpoint | result.value
CC(C)(C)C1CCc2c(sc(NC(=S)NC(=O)c3ccccc3)c2C(N)=O)C1 (stereo not given) | GI50 | 82.4
Cc1ccccc1NC(=O)c1c(NC(=O)C(F)(F)Br)sc2c1CCCCC2 | GI50 | 48
NC(=O)c1c(NC(=S)NC(=O)c2ccc(Cl)cc2)sc2c1CCC2 | GI50 | 23.8
CC(C)(C)C(=O)Nc1sc2c(c1C(N)=O)CCC(C(C)(C)C)C2 (stereo not given) | GI50 | 31.5
NC(=O)c1c(NC(=S)NC(=O)c2ccccc2)sc2c1CCC2 | GI50 | 26

###

# tgt: UniProtKB Q5XXA6
# test.description: Inhibition of human ANO1 channel expressed in HEK293 cells incubated for 10 mins by FLIPR assay
# Format: cell-based
pIC50: −log10 of the molar value.
In this section, each of the molecules is paired with its reported pIC50.

molecule | pIC50
NC(=O)c1c(NC(=S)NC(=O)c2ccccc2)sc2c1CCC2 | 5.55
CC(C)(C)C(=O)Nc1sc2c(c1C(N)=O)CCCCC2 | 5.32
CCc1c(C)nc(SCC(=O)Nc2ncc(-c3ccc(OC)cc3)s2)nc1O | 5.59
CC(C)(C)C(=O)Nc1sc2c(c1C(N)=O)CCC(C(C)(C)C)C2 (stereo not drawn) | 5.51
CC(C)(C)C1CCc2c(sc(NC(=S)NC(=O)c3ccccc3)c2C(N)=O)C1 (stereo not drawn) | 5.51
NC(=O)c1c(NC(=S)NC(=O)c2ccc(Cl)cc2)sc2c1CCC2 | 5.63
CC(C)(C)C1CCc2c(sc(N)c2C(N)=O)C1 (stereo not drawn) | 5.53
NC(=O)c1c(NC(=S)NC(=O)c2ccccc2Cl)sc2c1CCC2 | 5.64

###

In this section, each of the molecules is paired with its reported GI50 at 72 h.
# test.description: Antiproliferative activity against mouse primary astrocytes assessed as reduction in cell viability measured after 72 hrs by Celltiter-Glo luminescent assay
# Format: cell-based, Astrocyte
recorded.endpoint: GI50 at 72 h (µM)

molecule | result.value
CC(C)(C)C(=O)Nc1sc2c(c1C(N)=O)CCC(C(C)(C)C)C2 (configuration not stated) | 94.8
NC(=O)c1c(NC(=S)NC(=O)c2ccc(Cl)cc2)sc2c1CCC2 | 45.1

###

# Test system: U138-MG
# test.description: Antiproliferative activity against human U138 cells overexpressing ANO1 assessed as reduction in cell viability measured after 72 hrs by Celltiter-glo assay
# Type: functional
recorded.endpoint: GI50 (µM)

molecule | recorded.endpoint | result.value
CC(C)(C)C(=O)Nc1sc2c(c1C(N)=O)CCC(C(C)(C)C)C2 (stereo not given) | GI50 | 22.2
NC(=O)c1c(NC(=S)NC(=O)c2ccc(Cl)cc2)sc2c1CCC2 | GI50 | 13.2
NC(=O)c1c(NC(=S)NC(=O)c2ccccc2)sc2c1CCC2 | GI50 | 17.1
Cc1ccccc1NC(=O)c1c(NC(=O)C(F)(F)Br)sc2c1CCCCC2 | GI50 | 29.4
CC(C)(C)C1CCc2c(sc(NC(=O)c3ccco3)c2C(=O)O)C1 (stereo not given) | GI50 | 89.4

###

# tgt: Anoctamin-2 (Mus musculus)
# Sequence (Q8CFW1 whole entry, the tested form may be a part): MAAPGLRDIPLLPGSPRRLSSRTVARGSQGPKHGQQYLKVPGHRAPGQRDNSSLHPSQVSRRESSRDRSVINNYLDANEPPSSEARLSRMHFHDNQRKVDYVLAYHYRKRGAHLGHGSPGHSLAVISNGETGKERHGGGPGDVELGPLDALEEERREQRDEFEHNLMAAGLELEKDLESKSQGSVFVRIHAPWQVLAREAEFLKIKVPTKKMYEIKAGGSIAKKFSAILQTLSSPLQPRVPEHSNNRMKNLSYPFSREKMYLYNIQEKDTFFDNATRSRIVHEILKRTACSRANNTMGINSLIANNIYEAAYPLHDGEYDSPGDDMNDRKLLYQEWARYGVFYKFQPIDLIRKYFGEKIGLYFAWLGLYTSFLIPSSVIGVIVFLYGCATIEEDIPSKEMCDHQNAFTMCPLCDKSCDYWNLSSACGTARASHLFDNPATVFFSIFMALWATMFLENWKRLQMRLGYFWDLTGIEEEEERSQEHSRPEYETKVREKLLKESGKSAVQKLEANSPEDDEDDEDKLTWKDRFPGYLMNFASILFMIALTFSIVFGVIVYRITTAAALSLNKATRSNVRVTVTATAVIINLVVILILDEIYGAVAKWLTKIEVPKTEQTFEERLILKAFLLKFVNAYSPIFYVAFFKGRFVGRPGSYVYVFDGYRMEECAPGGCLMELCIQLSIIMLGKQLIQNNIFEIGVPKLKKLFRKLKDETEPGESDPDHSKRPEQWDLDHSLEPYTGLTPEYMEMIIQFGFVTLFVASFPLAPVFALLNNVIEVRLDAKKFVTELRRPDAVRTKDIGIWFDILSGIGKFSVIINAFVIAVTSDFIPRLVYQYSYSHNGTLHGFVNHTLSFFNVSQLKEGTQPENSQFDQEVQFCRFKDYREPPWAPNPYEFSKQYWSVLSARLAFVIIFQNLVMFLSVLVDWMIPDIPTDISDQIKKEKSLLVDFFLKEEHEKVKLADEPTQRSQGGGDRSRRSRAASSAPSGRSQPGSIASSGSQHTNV
# test.description: Inhibition of GFP-fused mouse ANO2 channel expressed in HEK293A cells assessed as inhibition of channel current amplitude at membrane potential of +80 mV by patch clamp electrophysiology assay
pIC50: −log10 of the molar value.
In this section, each of the compounds is paired with its reported pIC50.

compound | pIC50
CC(C)(C)C(=O)Nc1sc2c(c1C(N)=O)CCC(C(C)(C)C)C2 (configuration not stated) | 4.81
NC(=O)c1c(NC(=S)NC(=O)c2ccc(Cl)cc2)sc2c1CCC2 | 5.13

###

In this section, each of the molecules is paired with its reported inhibition.
# tgt: Anoctamin-1 (Homo sapiens) (UniProt Q5XXA6)
# test.description: Inhibition of human ANO1 channel expressed in HEK293 cells at 10 uM incubated for 10 mins by FLIPR assay relative to control
# Format: cell-based
recorded.endpoint: inhibition

molecule | result.value
NC(=O)c1c(N)sc2c1CCCCC2 | < 10%
CC(C)(C)C(=O)Nc1sc2c(c1C(N)=O)CCCCC2 | 67.9%
CC(C)(C)C1CCc2c(sc(N)c2C(N)=O)C1 (centres undefined) | 80.1%
NC(=O)c1ccsc1NC(=O)c1ccccc1 | < 10%

###

# tgt: UniProtKB Q5XXA6
# test.description: Inhibition of human ANO1 channel expressed in HEK293 cells at 10 uM incubated for 10 mins by FLIPR assay relative to control
# Format: cell-based
Cut-off 30% on inhibition, inclusive. At or above means y; below means n.

molecule | assigned.label
NC(=O)c1c(NC(=O)c2ccco2)sc2c1CCCCC2 | n
CC(C)(C)C1CCc2c(sc(NC(=S)NC(=O)c3ccco3)c2C(N)=O)C1 (stereo unspecified) | n
NC(=O)c1c(NC(=O)c2ccccc2)sc2c1CCCCC2 | n
NC(=O)c1c(NC(=S)NC(=O)c2ccccc2Cl)sc2c1CCC2 | y
NC(=O)c1c(NC(=S)NC(=O)c2cccc(C(F)(F)F)c2)sc2c1CCC2 | n
NC(=O)c1c(NC(=S)NC(=O)c2ccccc2)sc2c1CCC2 | y

###

# tgt: Anoctamin-1 (Homo sapiens)
# test.description: Inhibition of human ANO1 expressed in FRT cells assessed as inhibition of ATP-induced channel current treated 20 mins prior to ATP challenge and measured by pacth-clamp technique
# Format: cell-based
recorded.endpoint: IC50 (nM)

chemical.smiles | tgt | result.value
CCc1c(C)nc(SCC(=O)Nc2ncc(-c3ccc(OC)cc3)s2)nc1O | Anoctamin-1 (Homo sapiens) | 1100

###

# tgt: Anoctamin-1 (Mus musculus)
# Sequence (Q8BHY3 whole entry, the tested form may be a part): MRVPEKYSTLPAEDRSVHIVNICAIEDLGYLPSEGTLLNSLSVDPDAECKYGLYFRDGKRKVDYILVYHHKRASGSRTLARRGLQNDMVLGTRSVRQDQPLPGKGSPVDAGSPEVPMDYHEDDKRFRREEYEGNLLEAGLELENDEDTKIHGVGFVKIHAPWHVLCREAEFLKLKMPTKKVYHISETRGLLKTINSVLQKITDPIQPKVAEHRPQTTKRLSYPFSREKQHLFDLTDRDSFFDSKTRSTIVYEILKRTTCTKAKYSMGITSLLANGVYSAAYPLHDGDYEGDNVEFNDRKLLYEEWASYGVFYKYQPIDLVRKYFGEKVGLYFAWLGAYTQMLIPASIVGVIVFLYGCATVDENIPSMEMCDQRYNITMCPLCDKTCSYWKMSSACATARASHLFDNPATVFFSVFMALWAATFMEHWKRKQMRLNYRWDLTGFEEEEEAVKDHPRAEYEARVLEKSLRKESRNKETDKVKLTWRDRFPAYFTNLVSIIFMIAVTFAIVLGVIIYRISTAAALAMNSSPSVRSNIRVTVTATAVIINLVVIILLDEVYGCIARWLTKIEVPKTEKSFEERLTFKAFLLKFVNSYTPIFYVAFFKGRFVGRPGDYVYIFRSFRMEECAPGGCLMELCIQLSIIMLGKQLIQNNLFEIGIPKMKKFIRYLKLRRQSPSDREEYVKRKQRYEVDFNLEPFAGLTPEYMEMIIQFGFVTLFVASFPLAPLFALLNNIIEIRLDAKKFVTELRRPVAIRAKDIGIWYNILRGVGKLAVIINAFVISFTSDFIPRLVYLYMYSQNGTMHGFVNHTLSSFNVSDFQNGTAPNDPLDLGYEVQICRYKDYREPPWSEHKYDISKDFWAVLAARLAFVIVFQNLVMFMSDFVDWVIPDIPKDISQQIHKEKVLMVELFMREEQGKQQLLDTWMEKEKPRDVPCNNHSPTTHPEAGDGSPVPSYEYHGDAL
# test.description: Inhibition of GFP-fused mouse ANO1 channel expressed in HEK293A cells assessed as inhibition of ATP-induced channel current amplitude at membrane potential of +80 mV by patch clamp electrophysiology assay

molecule | unit.of.measure | IC50
CC(C)(C)C(=O)Nc1sc2c(c1C(N)=O)CCCCC2 | µM | 4.07
NC(=O)c1c(NC(=S)NC(=O)c2ccccc2Cl)sc2c1CCC2 | µM | 3.12
CCc1c(C)nc(SCC(=O)Nc2ncc(-c3ccc(OC)cc3)s2)nc1O | µM | 2.74
CC(C)(C)C1CCc2c(sc(NC(=O)c3ccco3)c2C(=O)O)C1 (stereo unspecified) | µM | 1.53
NC(=O)c1c(NC(=S)NC(=O)c2ccccc2)sc2c1CCC2 | µM | 2.63
CC(C)(C)C1CCc2c(sc(N)c2C(N)=O)C1 (stereo unspecified) | µM | 2.5
CC(C)(C)C(=O)Nc1sc2c(c1C(N)=O)CCC(C(C)(C)C)C2 (stereo unspecified) | µM | 2.56
NC(=O)c1c(NC(=S)NC(=O)c2ccc(Cl)cc2)sc2c1CCC2 | µM | 1.75
Cc1ccccc1NC(=O)c1c(NC(=O)C(F)(F)Br)sc2c1CCCCC2 | µM | 0.05
COc1ccccc1/C=N/NC(=O)COc1ccc(Cl)cc1C | µM | 0.03
CC(C)(C)C1CCc2c(sc(NC(=S)NC(=O)c3ccccc3)c2C(N)=O)C1 (stereo unspecified) | µM | 5.66

###

# tgt: Anoctamin-1 (Homo sapiens)
# Sequence (whole entry): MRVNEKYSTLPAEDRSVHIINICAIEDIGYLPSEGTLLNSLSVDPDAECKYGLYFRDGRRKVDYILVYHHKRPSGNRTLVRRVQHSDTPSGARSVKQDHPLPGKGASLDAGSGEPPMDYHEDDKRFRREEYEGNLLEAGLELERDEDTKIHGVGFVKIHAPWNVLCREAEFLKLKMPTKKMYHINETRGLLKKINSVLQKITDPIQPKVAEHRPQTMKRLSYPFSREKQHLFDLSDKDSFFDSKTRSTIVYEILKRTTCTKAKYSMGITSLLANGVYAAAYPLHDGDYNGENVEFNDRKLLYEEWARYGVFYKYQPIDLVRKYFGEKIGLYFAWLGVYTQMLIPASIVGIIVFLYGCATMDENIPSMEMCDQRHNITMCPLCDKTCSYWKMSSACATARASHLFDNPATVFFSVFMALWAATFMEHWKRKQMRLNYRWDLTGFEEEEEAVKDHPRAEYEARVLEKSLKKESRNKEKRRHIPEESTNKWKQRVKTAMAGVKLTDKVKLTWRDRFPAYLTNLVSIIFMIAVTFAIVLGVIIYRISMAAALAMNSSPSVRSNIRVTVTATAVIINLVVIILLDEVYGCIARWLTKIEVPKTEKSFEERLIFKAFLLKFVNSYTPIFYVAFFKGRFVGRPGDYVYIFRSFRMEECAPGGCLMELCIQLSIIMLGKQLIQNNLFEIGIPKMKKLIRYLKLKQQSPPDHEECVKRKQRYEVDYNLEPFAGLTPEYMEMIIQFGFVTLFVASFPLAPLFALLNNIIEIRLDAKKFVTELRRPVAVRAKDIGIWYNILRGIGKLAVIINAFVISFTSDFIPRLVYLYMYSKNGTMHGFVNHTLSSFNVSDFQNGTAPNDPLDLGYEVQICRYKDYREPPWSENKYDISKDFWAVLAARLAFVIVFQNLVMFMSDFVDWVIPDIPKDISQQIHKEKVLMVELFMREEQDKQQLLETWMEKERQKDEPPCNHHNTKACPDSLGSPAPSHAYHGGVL
# test.description: Inhibition of human ANO1 channel expressed in HEK293 cells at 10 uM incubated for 10 mins by FLIPR assay relative to control
# Format: cell-based
Cut-off 20% on inhibition, inclusive. At or above means Fulfilled; below means Not fulfilled.

compound | assigned.label
NC(=O)c1c(NC(=S)NC(=O)c2ccco2)sc2c1CCCCC2 | Fulfilled
CC(C)(C)C(=O)Nc1sc2c(c1C(N)=O)CCC2 | Not fulfilled
CC(C)(C)C(=O)Nc1sc2c(c1C(N)=O)CCC(C(C)(C)C)C2 (centres undefined) | Fulfilled
NC(=O)c1ccsc1N | Not fulfilled
NC(=O)c1c(NC(=O)c2ccccc2)sc2c1CCC2 | Not fulfilled
NC(=O)c1c(NC(=S)NC(=O)c2ccco2)sc2c1CCC2 | Not fulfilled
CCc1c(C)nc(SCC(=O)Nc2ncc(-c3ccc(OC)cc3)s2)nc1O | Fulfilled
NC(=O)c1ccsc1NC(=O)c1ccco1 | Fulfilled
NC(=O)c1c(NC(=O)c2ccco2)sc2c1CCC2 | Fulfilled
COc1ccc(C(=O)NC(=S)Nc2sc3c(c2C(N)=O)CCC3)cc1OC | Not fulfilled
CC(C)(C)C1CCc2c(sc(NC(=S)NC(=O)c3ccccc3)c2C(N)=O)C1 (centres undefined) | Fulfilled
NC(=O)c1c(NC(=S)NC(=O)c2ccc(C(F)(F)F)cc2)sc2c1CCC2 | Not fulfilled
COc1cc(C(=O)NC(=S)Nc2sc3c(c2C(N)=O)CCC3)cc(OC)c1OC | Not fulfilled
NC(=O)c1c(NC(=S)NC(=O)c2ccccc2)sc2c1CCCCC2 | Fulfilled
NC(=O)c1c(NC(=S)NC(=O)c2ccc3c(c2)OCO3)sc2c1CCC2 | Not fulfilled
COc1cc(OC)cc(C(=O)NC(=S)Nc2sc3c(c2C(N)=O)CCC3)c1 | Fulfilled
Cc1ncsc1C(=O)NC(=S)Nc1sc2c(c1C(N)=O)CCC2 | Not fulfilled
NC(=O)c1c(N)sc2c1CCC2 | Not fulfilled
CC(C)(C)C1CCc2c(sc(NC(=O)c3ccccc3)c2C(N)=O)C1 (centres undefined) | Fulfilled
CC(C)(C)C(=O)Nc1sccc1C(N)=O | Not fulfilled
CC(C)(C)C1CCc2c(sc(NC(=O)c3ccco3)c2C(N)=O)C1 (centres undefined) | Not fulfilled
NC(=O)c1c(NC(=S)NC(=O)c2ccc(Cl)cc2)sc2c1CCC2 | Fulfilled
NC(=O)c1c(NC(=S)NC(=O)c2cccc(Cl)c2)sc2c1CCC2 | Not fulfilled
NC(=O)c1c(NC(=S)NC(=O)c2ccc3c(c2)OCCO3)sc2c1CCC2 | Not fulfilled
